Tested on: K-562 leukemia
MEASUREMENT DESCRIPTION: NCI tumour cell line growth inhibition, 48 h
PROPERTY MEASURED: TGI

Completed entries (count: 5):
INSERT INTO measurements (compound, property_measured, reported_result) VALUES
  ('O=C(CSc1nnc(-c2ccc(N=Cc3ccc(Cl)cc3)cc2)o1)Nc1ccccc1', 'TGI', '> 100 µM'),
  ('COC(=O)C(Cc1ccccc1)C(=O)NC(CNC(=O)OCc1ccccc1)C(=O)OCc1ccccc1 (stereo unspecified)', 'TGI', '45 µM'),
  ('CC(=O)Oc1cc2c(=O)oc3c(OC(C)=O)c(OC(C)=O)c(OC(C)=O)c4c(=O)oc(c1OC(C)=O)c2c34', 'TGI', '> 100 µM'),
  ('CC(C)CC(NC(=O)OCc1ccccc1)C(=O)NCCCCC(N)C(=O)NC(CCCCNC(=O)C(CC(C)C)NC(=O)OCc1ccccc1)C(=O)NC(CCCCNC(=O)C(CC(C)C)NC(=O)OCc1ccccc1)C(=O)NC(CCCCNC(=O)C(CC(C)C)NC(=O)OCc1ccccc1)C(=O)NC(CCCCNC(=O)C(CC(C)C)NC(=O)OCc1ccccc1)C(=O)NC(CCCCNC(=O)C(CC(C)C)NC(=O)OCc1ccccc1)C(=O)O (stereo unspecified)', 'TGI', '> 100 µM'),
  ('C=C1[C@H](OCC(C)C)[C@@H](OCC(C)C)[C@@H](O)C(C)(C)/C=C/[C@H](C)C(=O)[C@@]2(O)C[C@H](C)[C@H](O)[C@@H]2[C@H]1OCC(C)C', 'TGI', '> 7.5 µM');

Now let's try a different one.
Value of measured TGI for the entry CC/C(=C/OC)P1(=O)OC(C)(C)CN1C(C)(C)C (stereo unspecified) : > 100 µM

###

Tested on: BT-549 breast
MEASUREMENT DESCRIPTION: NCI tumour cell line growth inhibition, 48 h; in the data active = GI50 below about 0.43 µM; inactive = the rest
*1 amine or outer side, *2 acyl side, *3 side chain or, on linkers, in order; H or OH if unused. Where a SMILES comes first, the peptide text is derived from it. CO = O=C([*:1])[*:2]
Your answer must be one of the following: active, inactive

Worked examples follow.
INSERT INTO assay_data (molecule, label_class) VALUES
  ('Cc1cccc(Oc2ccc(Nc3ncnc4ccc(NC(=O)CN5CCN(C)CC5)cc34)cc2Cl)c1', 'inactive'),
  ('C=C1C(=O)O[C@H]2[C@H]1CC/C(COC(=O)N[C@@H](Cc1c[nH]c3ccccc13)C(=O)OC)=C\CC[C@@]1(C)O[C@@H]21', 'inactive'),
  ('N#C/C(=C\c1ccc(Cl)cc1)n1nnc2cc(F)c(F)cc21', 'inactive'),
  ('Fc1ccc(Nc2ccc3cc(OCCCN4CCOCC4)ccc3n2)cc1F', 'inactive'),
  ('O=C(c1cccs1)c1c(C(F)(F)F)n([O-])c2cc(C(F)(F)F)ccc2[n+]1=O', 'active');

// return assay outcome for CC(C)C(NC(=O)C(CCCN=C(N)N)NC(=O)NC(Cc1ccccc1)C(=O)O)C(=O)NC(C=O)CCCN=C(N)N (stereo not drawn) ({Phe-CO}-Arg-Val-Arg-aldehyde; configuration not given here) inactive

// return assay outcome for C=C1C(=O)O[C@H]2[C@H]1CC/C(Cn1cc(Cn3ccc4cc(Cl)ccc43)nn1)=C\CC[C@@]1(C)O[C@@H]21 inactive

// return assay outcome for CC(=O)C1=C(O)C2(O)C(=O)c3c(c(C)c4ccc(C)c(O)c4c3O)CC2C(N)C1=O (stereo not drawn) inactive
